// provenance: PubChem BioAssay (NCI)

Here, each record is paired with measured growth inhibition data.
Assay: NCI Yeast Anticancer Drug Screen. Data for the mlh1 rad18 strain (AID 175)
Details: S. cerevisiae mlh1 rad18 strain growth inhibition; at 5.0 µM (retest, dose inferred, filed as 0.5); hits give high values
This is part of a sample that, as a whole, favours compounds with a hit. Of some 79,000 tested, about 15% had one in any assay.
Give the value in % but do not write % after it.

Please review the entries below; each comes with its answer.
CCCCCc1cc(Cl)cc(Cl)c1O = -3
O=C1/C(=C/c2ccccc2)CN(C(=O)C(F)(F)F)C/C1=C\c1ccccc1 = 66
C=C(CSCCCCCCCCCCCC)C(=O)O = 99
CC12CCC(O)CC1=CCC1C2CCC2(C)c3nc(C#N)c(=N)n(O)c3CC12 (configuration not stated) = 44
CC(C)(C)[Si](C)(C)O/N=C\c1cccc(O[Si](C)(C)C(C)(C)C)c1 = -3

Input: Entry under review: "NC(N)=NC(N)=Nc1ccc(-c2ccccc2)cc1" . Reported growth inhibition?
Output: 4

Input: Which growth inhibition reading was recorded for the compound "O=C1/C(=C(/Br)I)c2ccccc2-c2ccccc21" ?
Output: 99

Input: Fill blank: measured growth inhibition of the compound "O=C(NC(=Nc1ccccc1)SCCSC(=Nc1ccccc1)NC(=O)c1ccccc1)c1ccccc1" is ____.
Output: 1

Input: # query: growth inhibition of entry CCCOC1(C)CC(c2cc(OC)c(OC)c(OC)c2)c2cc3c(cc2O1)OCO3 (configuration not stated)
Output: 2

Input: Requested read-out: growth inhibition. Entry: "COc1ccc2ccccc2c1Cc1c(OC)ccc2ccccc12"
Output: 0

Input: Which growth inhibition reading was recorded for the compound C=C1C(=O)OC2C(C)C3C=CC(=O)[C@@]3(C)C(OC(=O)/C(C)=C/C)C1[C@@H]2OC(C)=O (some centres not stated) ?
Output: 16

Input: Name the recorded growth inhibition for "COC(=O)CCCCCOS(=O)(=O)c1ccc(C)cc1" .
Output: -5

Input: // growth inhibition lookup, key: CC1CCC2(NC1)OC1CC3[C@@H]4CC=C5C=CCC[C@]5(C)C4CC[C@]3(C)C1C2C (some centres not stated)
Output: -10

Input: Data request, read-out growth inhibition, for CCCC(C)(O)C(C)CC (configuration not stated)
Output: -2

Input: So what's the measured growth inhibition for this one? COc1cc2c(cc1O)CCN[C@@]21CS[C@H]2c3c(OC(C)=O)c(C)c4c(c3C(COC1=O)N1C2C2c3c(cc(C)c(OC)c3O)CC([C@@H]1O)N2C)OCO4 (some centres not stated)
Output: 99

Input: For the compound CC(c1ccccc1)c1cc(C(C)(C)C)ccc1O (configuration not stated) , what growth inhibition is on record?
Output: -19

Input: Quick check: growth inhibition of "Nc1ccccc1Nc1c([N+](=O)[O-])cc(C(F)(F)F)cc1[N+](=O)[O-]" ?
Output: 51

Input: Any idea what its growth inhibition is? The compound is "CO/C(=N\N=C(/c1ccccc1)C(F)(F)F)c1ccncc1"
Output: 0

Input: Entry under review: "S=C(Nc1cc(Cl)c(Cl)cc1Cl)SCc1ccccc1" . Reported growth inhibition?
Output: 55

Input: Return reported growth inhibition; argument: "CCSc1c2ccccc2nc2c(OC)ccc(OC)c12"
Output: -3

Input: Suppose we examine the compound "CC(=O)NS(=O)(=O)c1ccc(N=Cc2cc(Cl)cc(Cl)c2O)cc1" ; what growth inhibition value has been reported?
Output: 67

Input: Reported growth inhibition, compound "Cc1cc(Br)ccc1NC(=O)/C=C/C(=O)O" : ____
Output: 0
